System: S. aureus UBMS 88-7 (tetK)
Test: MIC, agar dilution
Type: cell-based
Settings: S. aureus UBMS 88-7 TetK; Table IA; unit assumed
Please provide measured Antibacterial activity (MIC) for the entries that follow.
Expressed in µg/mL, but write only the number.

Task: What measured Antibacterial activity (MIC) goes with CCCCN(C)CC(=O)Nc1cc(N(C)C)c2c(c1O)C(=O)C1=C(O)C3(O)C(=O)C(C(N)=O)=C(O)C(N(C)C)C3CC1C2.Cl.Cl (stereo not drawn) ?
Result: 1

Task: Record request: Antibacterial activity (MIC) value, item CCCNCC(=O)Nc1cc(N(C)C)c2c(c1O)C(=O)C1=C(O)C3(O)C(=O)C(C(N)=O)=C(O)C(N(C)C)C3CC1C2.Cl.Cl (stereo not drawn)
Result: 1

Task: # get_value(readout='Antibacterial activity (MIC)', item= CN(C)c1cc(NC(=O)CN2CCCCC2)c(O)c2c1CC1CC3C(N(C)C)C(O)=C(C(N)=O)C(=O)C3(O)C(O)=C1C2=O.Cl.Cl (stereo not drawn) )
Result: 0.25

----------
Please respond with reported MIC for every item in the list.
Test system: S. aureus UBMS 90-3 (Sensitive)
Test: MIC, agar dilution
Format: cell-based
Conditions: S. aureus UBMS 90-3 (Sensitive)
Write the answer as a number in µg/mL, unit excluded.

Task: Requested field: MIC. Item: CC(=O)Nc1nc(C)c(S(=O)(=O)Nc2cc(N(C)C)c3c(c2O)C(=O)C2=C(O)C4(O)C(=O)C(C(N)=O)=C(O)C(N(C)C)C4CC2C3)s1 (stereo not drawn)
Result: 2

Task: GET /values?readout=MIC&item= CN(C)c1cc(NC(=O)c2ccccc2)c(O)c2c1CC1CC3C(N(C)C)C(O)=C(C(N)=O)C(=O)C3(O)C(O)=C1C2=O (stereo not drawn)
Result: 1

Task: Given the molecule CC(=O)OCC(=O)Nc1cc(N(C)C)c2c(c1O)C(=O)C1=C(O)[C@]3(O)C(=O)C(C(N)=O)=C(O)[C@@H](N(C)C)[C@@H]3C[C@@H]1C2 , what is its reported MIC?
Result: 0.03

Task: MIC lookup needed for CN(C)c1cc(NC(=O)COCc2ccccc2)c(O)c2c1CC1CC3C(N(C)C)C(O)=C(C(N)=O)C(=O)C3(O)C(O)=C1C2=O (stereo not drawn) , thanks.
Result: 0.5

Task: Would you mind telling me what MIC value was observed for CN(C)c1cc(NS(=O)(=O)c2ccc([N+](=O)[O-])cc2)c(O)c2c1CC1CC3C(N(C)C)C(O)=C(C(N)=O)C(=O)C3(O)C(O)=C1C2=O (stereo not drawn) ?
Result: 0.06

Task: For the molecule shown here, CN(C)c1cc(NC(=O)c2ccc([N+](=O)[O-])cc2)c(O)c2c1CC1CC3C(N(C)C)C(O)=C(C(N)=O)C(=O)C3(O)C(O)=C1C2=O (stereo not drawn) , give the reported MIC.
Result: 0.5

----------
System: TetM S30 extract, derivative of E. coli MRE600 containing the tetM determinant
Test: E. coli in vitro transcription and protein translation, 35S-methionine incorporation (Table VIII)
Details: 0.06 mg/ml
Kindly supply the reported % INHIBITION TetM S30 values for the records listed here.
Write the numeric value and append its unit.

Task: May I ask what % INHIBITION TetM S30 has been recorded for CNCC(=O)Nc1cc(N(C)C)c2c(c1O)C(=O)C1=C(O)[C@]3(O)C(=O)C(C(N)=O)=C(O)[C@@H](N(C)C)C3CC1C2.Cl.Cl (some centres unmarked) ?
Result: 92%

Task: Any idea what % INHIBITION TetM S30 was measured for CN(C)c1cc(NC(=O)CNC2CC2)c(O)c2c1CC1CC3C(N(C)C)C(O)=C(C(N)=O)C(=O)C3(O)C(O)=C1C2=O.Cl.Cl (centres unmarked) ?
Result: 85%

Task: May I ask what % INHIBITION TetM S30 has been recorded for CCCNCC(=O)Nc1cc(N(C)C)c2c(c1O)C(=O)C1=C(O)C3(O)C(=O)C(C(N)=O)=C(O)C(N(C)C)C3CC1C2.Cl.Cl (centres unmarked) ?
Result: 88%

Task: State the recorded % INHIBITION TetM S30 for this entry: CCN(CC)CC(=O)Nc1cc(N(C)C)c2c(c1O)C(=O)C1=C(O)[C@]3(O)C(=O)C(C(N)=O)=C(O)[C@@H](N(C)C)C3CC1C2.Cl.Cl (some centres unmarked)
Result: 90%

Task: % INHIBITION TetM S30 lookup needed for CCNCC(=O)Nc1cc(N(C)C)c2c(c1O)C(=O)C1=C(O)[C@]3(O)C(=O)C(C(N)=O)=C(O)[C@@H](N(C)C)C3CC1C2.Cl.Cl (some centres unmarked) , thanks.
Result: 87%

Task: Report % INHIBITION TetM S30 for CN(C)c1cc(NC(=O)Cn2ccnc2)c(O)c2c1CC1CC3[C@H](N(C)C)C(O)=C(C(N)=O)C(=O)[C@@]3(O)C(O)=C1C2=O.Cl.Cl (some centres unmarked) please.
Result: 79%

Task: For CN(C)CC(=O)Nc1cc(N(C)C)c2c(c1O)C(=O)C1=C(O)[C@]3(O)C(=O)C(C(N)=O)=C(O)[C@@H](N(C)C)C3CC1C2.Cl.Cl (some centres unmarked) , what is its reported % INHIBITION TetM S30?
Result: 89%

Task: Using the record for CC(C(=O)Nc1cc(N(C)C)c2c(c1O)C(=O)C1=C(O)[C@]3(O)C(=O)C(C(N)=O)=C(O)[C@@H](N(C)C)C3CC1C2)N(C)C.Cl.Cl (some centres unmarked) , report its % INHIBITION TetM S30.
Result: 78%

----------
Test system: S. aureus UBMS 90-3 (Sensitive)
Assay: MIC, agar dilution
Type: cell-based
Conditions: S. aureus UBMS 90-3 (Sensitive)
Just a reminder that ties go to 0: only MIC strictly below 0.5 µg/mL counts as 1.

Task: Find out if reported MIC for CN(C)c1cc(N(C)C)c2c(c1O)C(=O)C1=C(O)C3(O)C(=O)C(C(N)=O)=C(O)C(N(C)C)C3CC1C2 (stereo not drawn) [C] is less than 0.5 µg/mL
Result: 1

Task: Hello, I'm reviewing records and need to know if MIC of CCN(CC)c1cc(NC(C)=O)c(O)c2c1CC1CC3C(N(C)C)C(O)=C(C(N)=O)C(=O)C3(O)C(O)=C1C2=O (stereo not drawn) [F] is below 0.5 µg/mL. Could you check?
Result: 1

Task: Would you kindly verify if MIC of CN(C)c1cc(NS(=O)(=O)c2cccs2)c(O)c2c1CC1CC3C(N(C)C)C(O)=C(C(N)=O)C(=O)C3(O)C(O)=C1C2=O (stereo not drawn) [DD] is strictly less than 0.5 µg/mL?
Result: 1

Task: Say whether its MIC is strictly beneath 0.5 µg/mL. Entry: CN(C)c1cc(NS(=O)(=O)c2ccccc2)c(O)c2c1CC1CC3C(N(C)C)C(O)=C(C(N)=O)C(=O)C3(O)C(O)=C1C2=O (stereo not drawn) [CC]
Result: 0

Task: I wonder whether CN(C)c1cc(NC(=O)CO)c(O)c2c1CC1CC3C(N(C)C)C(O)=C(C(N)=O)C(=O)C3(O)C(O)=C1C2=O (stereo not drawn) [L] has MIC below 0.5 µg/mL. Can you tell?
Result: 0

----------
System: S. mariescens FDOR 8733
Test: MIC, agar dilution (Table IA)
Type: cell-based
Settings: unit assumed
Where a name gives a salt, the structure may show the parent alone.
Task for the reader: assign each of the following compounds its reported Antibacterial activity (MIC).
Reply with just the number (in µg/mL).

Task: Quick check: Antibacterial activity (MIC) of CCCCNCC(=O)Nc1cc(N(C)C)c2c(c1O)C(=O)C1=C(O)C3(O)C(=O)C(C(N)=O)=C(O)C(N(C)C)C3CC1C2.Cl.Cl (stereo not shown) ?
Result: 2

Task: Returns the measured Antibacterial activity (MIC) for the input compound. Input: CCCCCNCC(=O)Nc1cc(N(C)C)c2c(c1O)C(=O)C1=C(O)C3(O)C(=O)C(C(N)=O)=C(O)C(N(C)C)C3CC1C2.Cl.Cl (stereo not shown)
Result: 8

Task: Query (compound): CCN(CC)CC(=O)Nc1cc(N(C)C)c2c(c1O)C(=O)C1=C(O)[C@]3(O)C(=O)C(C(N)=O)=C(O)[C@@H](N(C)C)C3CC1C2.Cl.Cl (stereo partly shown) ; field requested: Antibacterial activity (MIC)
Result: 4

Task: // query Antibacterial activity (MIC) value for entry CN(C)c1cc(NC(=O)CN2CCCC2)c(O)c2c1CC1CC3[C@H](N(C)C)C(O)=C(C(N)=O)C(=O)[C@@]3(O)C(O)=C1C2=O (stereo partly shown) [SS, dihydrochloride]
Result: 2

Task: Given the entry CNC(C)C(=O)Nc1cc(N(C)C)c2c(c1O)C(=O)C1=C(O)[C@]3(O)C(=O)C(C(N)=O)=C(O)[C@@H](N(C)C)C3CC1C2.Cl.Cl (stereo partly shown) , report its measured Antibacterial activity (MIC).
Result: 8

Task: Recorded Antibacterial activity (MIC) for CN(C)c1cc(NC(=O)CNC2CCC2)c(O)c2c1CC1CC3C(N(C)C)C(O)=C(C(N)=O)C(=O)C3(O)C(O)=C1C2=O (stereo not shown) , please?
Result: 8

Task: Fill blank: measured Antibacterial activity (MIC) of the compound CCCCN(C)CC(=O)Nc1cc(N(C)C)c2c(c1O)C(=O)C1=C(O)C3(O)C(=O)C(C(N)=O)=C(O)C(N(C)C)C3CC1C2.Cl.Cl (stereo not shown) is ____.
Result: 16

Task: Dear colleague, I am looking for the recorded Antibacterial activity (MIC) of the following compound: CC(C(=O)Nc1cc(N(C)C)c2c(c1O)C(=O)C1=C(O)[C@]3(O)C(=O)C(C(N)=O)=C(O)[C@@H](N(C)C)C3CC1C2)N(C)C.Cl.Cl (stereo partly shown)
Result: 4

Task: Given CN(C)CC(=O)Nc1cc(N(C)C)c2c(c1O)C(=O)C1=C(O)[C@]3(O)C(=O)C(C(=O)NCN4CCOCC4)=C(O)[C@@H](N(C)C)C3CC1C2 (stereo partly shown) , state its recorded Antibacterial activity (MIC).
Result: 4

Task: Record request: Antibacterial activity (MIC) value, item CC(C)CNCC(=O)Nc1cc(N(C)C)c2c(c1O)C(=O)C1=C(O)C3(O)C(=O)C(C(N)=O)=C(O)C(N(C)C)C3CC1C2.Cl.Cl (stereo not shown)
Result: 4
